molecular target: purified recombinant human JAK3 protein (Homo sapiens (Human), UniProt P52333); test: JAK3 kinase-inhibiting activity (mobility shift, LabChip EZ Reader II); type: biochemical; settings: in terms of IC50 value
Sequence (P52333 whole entry): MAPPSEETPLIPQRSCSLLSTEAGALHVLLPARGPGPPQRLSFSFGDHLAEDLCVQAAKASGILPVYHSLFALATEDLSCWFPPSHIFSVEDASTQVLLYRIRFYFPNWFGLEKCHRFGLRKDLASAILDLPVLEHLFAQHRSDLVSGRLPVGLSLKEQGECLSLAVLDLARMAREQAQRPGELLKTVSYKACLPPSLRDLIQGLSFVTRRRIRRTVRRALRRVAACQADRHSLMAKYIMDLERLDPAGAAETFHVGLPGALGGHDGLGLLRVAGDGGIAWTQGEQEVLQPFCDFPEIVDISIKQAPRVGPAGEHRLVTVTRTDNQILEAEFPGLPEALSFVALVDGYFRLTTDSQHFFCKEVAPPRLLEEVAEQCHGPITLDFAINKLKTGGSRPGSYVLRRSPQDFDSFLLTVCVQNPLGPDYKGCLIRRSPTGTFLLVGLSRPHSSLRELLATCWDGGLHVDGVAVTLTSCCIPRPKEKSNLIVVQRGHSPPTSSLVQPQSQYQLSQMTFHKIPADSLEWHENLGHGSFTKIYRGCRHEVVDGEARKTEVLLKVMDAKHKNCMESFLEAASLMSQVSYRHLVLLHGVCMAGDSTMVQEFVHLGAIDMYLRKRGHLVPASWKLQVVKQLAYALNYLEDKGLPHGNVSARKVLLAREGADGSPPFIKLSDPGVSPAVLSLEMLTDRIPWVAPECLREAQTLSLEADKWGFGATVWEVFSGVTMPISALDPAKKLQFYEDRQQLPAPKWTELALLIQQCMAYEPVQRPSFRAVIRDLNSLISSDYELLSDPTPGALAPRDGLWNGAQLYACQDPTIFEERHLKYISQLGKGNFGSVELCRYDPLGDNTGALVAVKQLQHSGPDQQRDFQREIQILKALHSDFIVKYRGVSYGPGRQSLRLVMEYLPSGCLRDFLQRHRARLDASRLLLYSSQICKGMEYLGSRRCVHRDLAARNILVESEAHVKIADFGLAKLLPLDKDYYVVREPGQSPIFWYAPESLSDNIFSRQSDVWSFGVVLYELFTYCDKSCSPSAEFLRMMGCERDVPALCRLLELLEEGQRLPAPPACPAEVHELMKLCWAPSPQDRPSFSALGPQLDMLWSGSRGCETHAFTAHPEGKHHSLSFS
TEST READOUT: JAK3-inhibiting activity attenuated in comparison to the compound of the present invention

>>> print(df.to_string())
                                   molecule  readout_value
0  C1=C(c2ncnc3[nH]ccc23)CCCC1 [Comparative Example 10, reference compound]    ≥ 100 times

Given item C=CC(=O)NC1CCC=C(c2ncnc3[nH]cc(-c4ncccn4)c23)C1 (stereo not shown) [Comparative Example 8, reference compound] , the value recorded as its JAK3-inhibiting activity attenuated in comparison to the compound of the present invention is ≥ 20 times

Given item C=C(C)C(=O)NC1CCC=C(c2ncnc3[nH]cc(-c4ccccc4)c23)C1 (stereo not shown) [Comparative Example 1, reference compound] , the value recorded as its JAK3-inhibiting activity attenuated in comparison to the compound of the present invention is ≥ 20 times

Given item C/C=C/C(=O)NC1CCC=C(c2ncnc3[nH]cc(-c4ccccc4)c23)C1 (stereo not shown) [Comparative Example 2, reference compound] , the value recorded as its JAK3-inhibiting activity attenuated in comparison to the compound of the present invention is ≥ 20 times

###

target: purified recombinant human JAK2 protein (Homo sapiens (Human)); test: JAK2 kinase-inhibiting activity (mobility shift, LabChip EZ Reader II); conditions: ATP 10 μM, 25° C., 80 minutes
Sequence (O60674 whole entry): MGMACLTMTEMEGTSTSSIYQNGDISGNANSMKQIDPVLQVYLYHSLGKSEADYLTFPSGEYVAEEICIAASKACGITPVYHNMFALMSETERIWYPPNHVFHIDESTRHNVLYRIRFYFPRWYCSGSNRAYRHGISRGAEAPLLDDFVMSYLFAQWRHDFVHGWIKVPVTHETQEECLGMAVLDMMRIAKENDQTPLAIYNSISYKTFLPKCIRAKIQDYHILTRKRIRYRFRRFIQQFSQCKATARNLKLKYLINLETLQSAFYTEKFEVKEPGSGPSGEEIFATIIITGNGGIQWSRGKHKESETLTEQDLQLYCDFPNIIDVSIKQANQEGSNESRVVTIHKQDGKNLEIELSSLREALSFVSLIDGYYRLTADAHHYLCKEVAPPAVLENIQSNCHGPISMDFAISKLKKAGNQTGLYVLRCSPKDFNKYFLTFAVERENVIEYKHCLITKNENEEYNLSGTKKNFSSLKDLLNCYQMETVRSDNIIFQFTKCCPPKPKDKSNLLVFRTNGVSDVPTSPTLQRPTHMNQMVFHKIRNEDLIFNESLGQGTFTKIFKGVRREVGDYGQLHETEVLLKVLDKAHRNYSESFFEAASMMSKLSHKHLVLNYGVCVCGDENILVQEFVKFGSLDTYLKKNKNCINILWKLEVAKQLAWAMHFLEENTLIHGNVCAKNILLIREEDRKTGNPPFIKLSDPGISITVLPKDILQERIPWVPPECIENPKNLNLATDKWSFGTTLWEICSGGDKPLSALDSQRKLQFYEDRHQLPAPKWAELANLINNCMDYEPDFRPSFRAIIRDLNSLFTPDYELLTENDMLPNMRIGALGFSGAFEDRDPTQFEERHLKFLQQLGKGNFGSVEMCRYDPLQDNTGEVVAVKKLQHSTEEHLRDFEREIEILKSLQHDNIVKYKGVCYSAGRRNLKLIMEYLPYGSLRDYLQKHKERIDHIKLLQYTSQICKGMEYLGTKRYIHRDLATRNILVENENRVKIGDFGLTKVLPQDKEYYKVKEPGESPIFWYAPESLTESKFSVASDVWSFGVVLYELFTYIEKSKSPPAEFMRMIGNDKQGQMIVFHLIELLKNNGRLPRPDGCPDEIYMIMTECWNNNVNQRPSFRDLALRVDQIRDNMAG
TEST READOUT: IC50 (nM)

Please review the entries below; each comes with its answer.
>>> df
                                   compound  test_readout  readout_value
0  C=CC(=O)NC1CCC=C(c2ncnc3[nH]cc(-c4ccco4)c23)C1 (centres unmarked)          IC50            430
1  C=CC(=O)NC1C=C(c2ncnc3[nH]cc(-c4ccsc4)c23)CCC1 (centres unmarked)          IC50           1200
2  C=CC(=O)NC1CCC=C(c2ncnc3[nH]cc(-c4cccs4)c23)C1 (centres unmarked)          IC50            480
3  C1=C(c2ncnc3[nH]ccc23)CCCC1 [Comparative Example 10, reference compound]          IC50            166
4  C=CC(=O)NC1CCC=C(c2ncnc3[nH]cc(-c4ccoc4)c23)C1 (centres unmarked)          IC50           1300

I. C=CC(=O)NC1CC=C(c2ncnc3[nH]cc(-c4ccco4)c23)C1 (centres unmarked)
II. C=CC(=O)NC1C=C(c2ncnc3[nH]cc(-c4ccccc4)c23)CCC1 (centres unmarked)
Exercise: Of the two listed items, I and II , which carries the larger IC50 figure? When you have decided, please share the label of that item.
Solution: II
